Provenance of the data: the supplement of paper PMC7125110

Catalogue of self-cleavage kobs at 160 uM GlcN6P readings, one per entry.
B1: glmS ribozyme (parent)
chain: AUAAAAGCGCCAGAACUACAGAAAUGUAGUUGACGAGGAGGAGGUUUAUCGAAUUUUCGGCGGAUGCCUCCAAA

# Variants of: B1
# Assay: self-cleavage kobs at 160 uM GlcN6P; higher = faster cleavage; RNA array
# Condition info: with glucosamine-6-phosphate
Variants at the floor of the assay were thinned out.

# Mutation id, self-cleavage kobs at 160 uM GlcN6P
data = [
    ("A14G U55G", "0.00404 s⁻¹"),
    ("A39G G59U", "< 1e-05 s⁻¹"),
    ("A53C C58U", "< 1e-05 s⁻¹"),
    ("C8G A42U C58U", "< 1e-05 s⁻¹"),
    ("C8G G38A C58G C67G", "0.000186 s⁻¹"),
    ("C8A C70G", "< 1e-05 s⁻¹"),
    ("A52C G60A G66A", "< 1e-05 s⁻¹"),
    ("C16A G44C", "< 1e-05 s⁻¹"),
    ("G38C G43U", "< 1e-05 s⁻¹"),
    ("U45C C70U", "0.000303 s⁻¹"),
    ("A12U G13C U47G G60C", "< 1e-05 s⁻¹"),
    ("C67G C68A", "7.05e-05 s⁻¹"),
    ("C16U U30C", "3.52e-05 s⁻¹"),
    ("G44A U54C U65G C68G", "< 1e-05 s⁻¹"),
    ("C16A C34U", "< 1e-05 s⁻¹"),
    ("G37C G41U", "< 1e-05 s⁻¹"),
    ("A6G U57C C70A C71U", "< 1e-05 s⁻¹"),
    ("U55C U65G", "0.000212 s⁻¹"),
    ("G43C G60C C68U", "< 1e-05 s⁻¹"),
    ("G35A G59C", "< 1e-05 s⁻¹"),
    ("G63A C70G C71G", "5.57e-05 s⁻¹"),
    ("G7A C16G", "< 1e-05 s⁻¹"),
    ("A48U G59A G66U", "< 1e-05 s⁻¹"),
    ("G7C C16A", "< 1e-05 s⁻¹"),
    ("A12C C34G", "< 1e-05 s⁻¹"),
    ("U57G U69G", "8.11e-05 s⁻¹"),
    ("G37U C58A", "< 1e-05 s⁻¹"),
    ("G29U G60A", "< 1e-05 s⁻¹"),
    ("G35C C68U", "< 1e-05 s⁻¹"),
    ("G32U A33U", "< 1e-05 s⁻¹"),
    ("G41U G66A", "0.000253 s⁻¹"),
    ("C10G G38U A42C", "< 1e-05 s⁻¹"),
    ("A42U C67A", "0.000151 s⁻¹"),
    ("G44U C50A", "< 1e-05 s⁻¹"),
    ("G43C U69C", "< 1e-05 s⁻¹"),
]
